The values you see were collected from patent US20260258115A1.

# tgt: RSV postfusion F (postF), F ΔFP (Respiratory syncytial virus, UniProt P03420 26-513)
# procedure-details: BLI, IgG on anti-human IgG sensor, 100 nM antigen
pKd: −log10 of the molar value.
recorded-endpoint: pKd

>>> measurement("ADI-41768 (antibody, V domains shown, also called Ab 900; Antibody Number 900) VH: EVQLVESGGGLVQPGRSLRLSCAASGFTFGDYAMHWVRQAPGKGLEWVSGITWNSGRVVYADSVKGRFTISRDNAKNSLYLQINSLRAEDTALYYCVKGSCNGGICYSADYWGQGTLVTVSS VL: NFMLTQPHSVSESPGKTVTISCTRSSGSIARNFVHWYQQRPGSSPTTVIYEDNQRPSGVPGRFSGSIDSSSNSASLTISGLRSEDEADYYCQSYDSDNWVFGGGTKLTVL")
9.47
>>> measurement("ADI-41803 (antibody, V domains shown, also called Ab 912; Antibody Number 912) VH: RCTLQQWGAGRVKPSETLSLTCAVYRGPFSGYYWSWIRQPPGKGLEWIGEINLGETNPGGSTHYNPSLRSRLSMSIDTSKKQFSLRVNSVTAADTAVYYCTRGPVSRIYDTSGSYSLNYYGMDVWGQGTTVTVSS VL: DIRMTQSPSSLSASVGDRVTITCRASQGIRNDLGWYQQKPGRAPERLIYPASSLQGGVPSRFIASGSGTEFTLTISNLQPEDFATYYCLQHNSYPRTFGQGTKVEIK")
9.15
>>> measurement("ADI-41644 (antibody, V domains shown, also called Ab 887; Antibody Number 887) VH: QVQLQQWGPGLVKPSETLSLSCAVSGGSLRGHFWSWIRQPPGKGLEWIGEINHGGRTNFNPSLKSRLTISEDSSKNQFSLKLSSVTAADTAVYYCARRWGYDSSGYYFFDYWGQGTLVTVSS VL: EIQMTQSPATLSVSPGERATLSCRASQTLGFNLAWYQQKPGQSPRLLIYGASTRATGIPARFSGSGAGTEFTLTISSLQSEDFAVYFCQQYSNYYTFGQGTKVEIK")
8.96
>>> measurement("ADI-41690 (antibody, V domains shown, also called Ab 893; Antibody Number 893) VH: QVQLVQSGAEVKKPGESLRISCKGSGYSFSSHWIGWVRQKPGKGLEWMGIIYPGDSDTRYSPSFQGHVTISADKSISTAYLRWSSLKASDTAIYYCAKRMVGDYYGMNLWGQGTTVTVSS VL: EIVMTQSPSSLSASVGDRVTITCQASQDISNRLNWYQQKPGKAPKLLIYDASNLETGVPSRFSGSGSGTDFTFTISSLQPEDIATYFCQQYDYLLWFTFGPGTKVDIK")
8.06
>>> measurement("ADI-41604 (antibody, V domains shown) VH: QVTLKESGAEVKKPGASVKVSCKASGYTFTGYYMHWVRQAPGQGLEWMGRINPNSGGTNYAQKFQGRVTMTRDTSISTAYMELSRLRSDDTAVYYCAREASRFGGFDYWGQGTLVTVSS VL: DIVLTQSPSSLSASVGDRVTITCQASQDISNYLNWYQQKPGKAPKLLIYDASNLETGVPSRFSGSGSGTDFTFTISSLQPEDIATYYCQQYDNLLGYTFGQGTKVEIK")
7.53
